ASSAY_METHOD_TEXT: NCI Yeast Anticancer Drug Screen. Data for the bub3 strain (AID 167)
EXPERIMENTAL_CONDITIONS: S. cerevisiae bub3 mutant strain, at 3.7 µM, hits give high values
The panel holds about 79,000 compounds, 15% with a hit somewhere; the sample as a whole holds those more often.
Measured growth inhibition values are reported for all entries that follow.
The reply should be a number in %, with the unit left off.

O=C1C=C(NCCc2cc(Br)c(O)c(Br)c2)C(=O)c2ncccc21 = -6
CCN(CC)C(=S)N/N=C(\C)c1ccccc1O = -7
CSC(=S)N/N=C/c1ccccc1 = 28
COc1ccccc1/C=C\C(=O)C1COCN1 (configuration not stated) = 9
Clc1ccc(/C(=C\c2ccccc2)Cn2ccnc2)cc1 = 32

Return reported growth inhibition. Input molecule: "CNC(=S)N/N=C(/C)CCC/C(C)=N/NC(=S)NC"
62

Tell us which growth inhibition value is on record for "CC1=C(C)C(=O)C2=C(OCCO2)C1=O"
2

Answer with the recorded growth inhibition for the molecule listed here: "O=c1[nH]c2c([N+](=O)[O-])cccc2c2ccccc12"
-6

Please report growth inhibition for the following molecule: "COC(=O)c1ccccc1N=NNc1cccc(SC)c1"
6

Answer with the recorded growth inhibition for the molecule listed here: CCN1CCC(O)(c2ccc(Oc3ccc(C)cc3)cc2)C(C(=O)c2ccc(Oc3ccc(C)cc3)cc2)C1 (configuration not stated)
23

Find the measured growth inhibition of "O=c1cccccc1[O-].O=c1cccccc1[O-].O=c1cccccc1[O-].[Eu+3]" and report it.
1

Respond only with growth inhibition recorded for "CC1(C2CC2)C(C#N)(C#N)C1(C#N)C#N"
-2

---

ASSAY_METHOD_TEXT: NCI Yeast Anticancer Drug Screen. Data for the mlh1 rad18 strain (AID 175)
EXPERIMENTAL_CONDITIONS: S. cerevisiae mlh1 rad18 strain growth inhibition; at 50.0 µM (retest, dose inferred, filed as 5.0)
The panel holds about 79,000 compounds, 15% with a hit somewhere; the sample as a whole holds those more often. The source made the active and inactive calls. Rule as the data show it: active = growth inhibition above about 70%; inactive = the rest.
Outcomes you can answer with include only these: active, inactive

CC1=NN(C(=O)CC(=O)NC(=O)/C=C\c2ccccc2)C(=O)C1N=Nc1ccc([N+](=O)[O-])cc1 (centres undefined) = inactive
COC(=O)c1cnc(Cl)c([N+](=O)[O-])c1 = active
CC(C)OC(=O)NNc1cc(Cl)ccc1Cl = active

Next item in the queue.
For "C1=CCN([B-](c2ccccc2)[C+]2CCCCC2)C=C1" , which call appears in the assay record?
active

---

Entries and their measured growth inhibition follow.
ASSAY_METHOD_TEXT: NCI Yeast Anticancer Drug Screen. Data for the rad50 strain (AID 155);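 also: 0% = growth of vehicle-only cultures of the same strain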
EXPERIMENTAL_CONDITIONS: S. cerevisiae rad50 strain growth inhibition; at 50.0 µM; hits give high values
This is part of a sample that, as a whole, favours compounds with a hit. Of some 79,000 tested, about 15% had one in any assay.
Give just the number in %; leave the unit off.

Answered examples (3):
S=C1C(=Nc2ccccc2)N(c2ccccc2)/C(=N\c2ccccn2)N1c1ccccc1 = 98.1
O=[N+]([O-])c1cn[n+]([O-])c2ccccc12 = 89.3
O=C1C[C@H]2[C@H](c3ccc(Br)cc3)[C@H]3C(=O)c4ccccc4NC(=O)[C@@H]3[C@@]2(O)c2ccccc2N1 = 96.8

Complete the entry with growth inhibition for "COC(=O)c1ccccc1N=NNc1cccc(SC)c1"
86.8

Look up and state reported growth inhibition for "COc1ccc2cc3c4cc5c(cc4cc[n+]3cc2c1OC)OCO5"
97.1

Tell me growth inhibition reported for "CCN(CC)CCC(=O)Nc1ccc2sc3ccccc3c(=O)c2n1"
70

Please give measured growth inhibition of the following entry: CC(=O)CC(c1ccccc1)c1c(O)c2ccccc2oc1=O (stereo not given)
46.8
